# Assay details: Selectivity index, ratio of cytotoxicity against human A549 cells to IC50 for chloroquine-resistant blood-stage Plasmodium falciparum W2
# Assay type: toxicity, cell-based
# Condition label: read-out: Selectivity Index
Readout type: selectivity ratio
Answer using only a numeral; do not append any unit.

Look up selectivity ratio for this compound: COc1cc(NC(C)CCCN2C(=O)CN(C(=O)[C@H](N)CC(C)C)C2(C)C)c2ncccc2c1 (stereo partly specified)
3.5

---

# Assay details: Octanol/water partition coefficient, log P of the compound
# Type: physicochemical
Parameter logP: see the listing below.
// response body must contain only the number

COc1cc(NC(C)CCCN2C(=O)CN(C(=O)[C@@H](C)N)C2(C)C)c2ncccc2c1 (stereo partly specified) = 2.49
COc1cc(NC(C)CCCN2C(=O)[C@@H](C)NC2(C)C)c2ncccc2c1 (stereo partly specified) = 3.25

Quick one: logP of COc1cc(NC(C)CCCN2C(=O)CN(C(=O)[C@H](N)CC(C)C)C2(C)C)c2ncccc2c1 (stereo partly specified) ?
3.36

# get_value(readout='logP', item= CC[C@H](C)[C@@H](N)C(=O)N1CC(=O)N(CCCC(C)Nc2cc(OC)cc3cccnc23)C1(C)C (stereo partly specified) )
3.4

Consider the compound shown here: COc1cc(NC(C)CCCN2C(=O)CN(C(=O)[C@H](N)Cc3ccccc3)C2(C)C)c2ncccc2c1 (stereo partly specified) What is its recorded logP?
3.6

Report logP for COc1cc(NC(C)CCCN2C(=O)[C@@H](C)N(C(=O)CN)C2(C)C)c2ncccc2c1 (stereo partly specified) please.
2.57

Sample COc1cc(NC(C)CCCN)c2ncccc2c1 (stereo unspecified) — what was its logP?
2.76

Consider the compound shown here: COc1cc(NC(C)CCCN2C(=O)CN(C(=O)[C@H](N)C(C)C)C2(C)C)c2ncccc2c1 (stereo partly specified) What is its recorded logP?
2.93

Which logP value is on record for COc1cc(NC(C)CCCN2C(=O)CN(C(=O)CN)C2(C)C)c2ncccc2c1 (stereo unspecified) ?
2.19

// returns reported logP for input COc1cc(NC(C)CCCN2C(=O)CN(C(=O)[C@H](N)CCSC)C2(C)C)c2ncccc2c1 (stereo partly specified)
2.94

Reported logP for COc1cc(NC(C)CCCN2C(=O)CNC2(C)C)c2ncccc2c1 (stereo unspecified) : what is it?
3.07

---

# Assay details: Solubility in water
# Type: physicochemical
# Condition label: buffer
Readout type: solubility (µg/mL)
Provide only the numeric value, understood in µg/mL.

I have this compound here, COc1cc(NC(C)CCCN)c2ncccc2c1 (stereo unspecified) , and I need its recorded solubility.
56.4

---

# Tested on: Pneumocystis carinii
# Assay details: Antipneumocystis activity against Pneumocystis carinii assessed as reduction in parasite ATP content after 24 hrs by luciferin-luciferase assay
# Assay type: functional, organism-based
Some molecules, each annotated with its measured IC50.
Write the value in µM as a bare number.

Please review the entries below; each comes with its answer.
COc1cc(NC(C)CCCN2C(=O)CN(C(=O)[C@H](N)CCSC)C2(C)C)c2ncccc2c1 (stereo partly specified) = 23.8
COc1cc(NC(C)CCCN2C(=O)CN(C(=O)[C@H](N)CC(C)C)C2(C)C)c2ncccc2c1 (stereo partly specified) = 31.1
COc1cc(NC(C)CCCN2C(=O)CN(C(=O)CN)C2(C)C)c2ncccc2c1 (stereo unspecified) = 43.8
COc1cc(NC(C)CCCN2C(=O)CN(C(=O)[C@H](N)Cc3ccccc3)C2(C)C)c2ncccc2c1 (stereo partly specified) = 24
COc1cc(NC(C)CCCN)c2ncccc2c1 (stereo unspecified) = 18.1
COc1cc(NC(C)CCCN2C(=O)CN(C(=O)[C@H](N)C(C)C)C2(C)C)c2ncccc2c1 (stereo partly specified) = 54.3

Recorded IC50 for COc1cc(NC(C)CCCN2C(=O)CN(C(=O)[C@@H](C)N)C2(C)C)c2ncccc2c1 (stereo partly specified) , please?
39.6

// IC50 lookup, key: CC[C@H](C)[C@@H](N)C(=O)N1CC(=O)N(CCCC(C)Nc2cc(OC)cc3cccnc23)C1(C)C (stereo partly specified)
27.5

---

Each entry below lists one item and its recorded pIC50 value.
# Test system: Pneumocystis carinii
# Assay details: Antipneumocystis activity against Pneumocystis carinii assessed as reduction in parasite ATP content after 72 hrs by luciferin-luciferase assay
# Type: functional, organism-based
Just the number, please; pIC50 means minus log10 of the concentration in mol/L.

Would you please look over these solved cases?
COc1cc(NC(C)CCCN)c2ncccc2c1 (stereo unspecified) = 5.46
COc1cc(NC(C)CCCN2C(=O)CN(C(C)=O)C2(C)C)c2ncccc2c1 (stereo unspecified) = 4.44
COc1cc(NC(C)CCCN2C(=O)CN(C(=O)CN)C2(C)C)c2ncccc2c1 (stereo unspecified) = 4.55
COc1cc(NC(C)CCCN2C(=O)[C@@H](C)N(C(=O)CN)C2(C)C)c2ncccc2c1 (stereo partly specified) = 4.28
COc1cc(NC(C)CCCN2C(=O)CN(C(=O)[C@@H](C)N)C2(C)C)c2ncccc2c1 (stereo partly specified) = 5.08

So what does the record say about pIC50 for COc1cc(NC(C)CCCN2C(=O)CN(C(=O)[C@H](N)C(C)C)C2(C)C)c2ncccc2c1 (stereo partly specified) ?
4.87

Return reported pIC50; argument: CC[C@H](C)[C@@H](N)C(=O)N1CC(=O)N(CCCC(C)Nc2cc(OC)cc3cccnc23)C1(C)C (stereo partly specified)
5.01

pIC50 lookup needed for COc1cc(NC(C)CCCN2C(=O)CN(C(=O)[C@H](N)Cc3ccccc3)C2(C)C)c2ncccc2c1 (stereo partly specified) , thanks.
5.00

For the compound shown here, COc1cc(NC(C)CCCN2C(=O)CN(C(=O)[C@H](N)CCSC)C2(C)C)c2ncccc2c1 (stereo partly specified) , give the reported pIC50.
5.15

Could you share which pIC50 value was measured for COc1cc(NC(C)CCCN2C(=O)CN(C(=O)[C@H](N)CC(C)C)C2(C)C)c2ncccc2c1 (stereo partly specified) ?
4.96

---

# Assay details: Solubility in water
# Format: physicochemical
# Condition label: water
solubility by entry:
Quick reminder: number only, in µg/mL, skip the unit.

COc1cc(NC(C)CCCN2C(=O)[C@@H](C)N(C(=O)CN)C2(C)C)c2ncccc2c1 (stereo not given in full) = 110

Look at this compound and give its reported solubility. COc1cc(NC(C)CCCN2C(=O)CNC2(C)C)c2ncccc2c1 (stereo not given)
40.5

Using the record for COc1cc(NC(C)CCCN2C(=O)CN(C(=O)CN)C2(C)C)c2ncccc2c1 (stereo not given) , report its solubility.
150

// lookup solubility for COc1cc(NC(C)CCCN2C(=O)CN(C(=O)[C@H](N)CCSC)C2(C)C)c2ncccc2c1 (stereo not given in full)
11.7

---

# Tested on: Pneumocystis carinii
# Assay details: Antipneumocystis activity against Pneumocystis carinii assessed as reduction in parasite ATP content after 24 hrs by luciferin-luciferase assay
# Type: functional, organism-based
Readout type: IC50

COc1cc(N(C(C)=O)C(C)CCCN2C(=O)CN(C(C)=O)C2(C)C)c2ncccc2c1 (stereo not drawn) = ≥ 50 µM
COc1cc(NC(C)CCCN2C(=O)CN(C(C)=O)C2(C)C)c2ncccc2c1 (stereo not drawn) = ≥ 50 µM

We next turn to a different compound, shown below.
Given COc1cc(NC(C)CCCN2C(=O)[C@@H](C)N(C(=O)CN)C2(C)C)c2ncccc2c1 (stereo partly drawn) , state its recorded IC50.
≥ 50 µM

---

# Assay details: Solubility in water
# Format: physicochemical
# Condition label: water
Rule: solubility under 30 µg/mL gives f, otherwise t.

Consider the following illustrative entries.
COc1cc(NC(C)CCCN2C(=O)CN(C(=O)[C@H](N)C(C)C)C2(C)C)c2ncccc2c1 (stereo partly specified) = t
COc1cc(NC(C)CCCN2C(=O)CN(C(=O)[C@H](N)CC(C)C)C2(C)C)c2ncccc2c1 (stereo partly specified) = f
COc1cc(NC(C)CCCN2C(=O)CN(C(=O)[C@@H](C)N)C2(C)C)c2ncccc2c1 (stereo partly specified) = t

Moving on to another compound below.
Decide: solubility of COc1cc(NC(C)CCCN2C(=O)CN(C(=O)[C@H](N)Cc3ccccc3)C2(C)C)c2ncccc2c1 (stereo partly specified) >= 30 µg/mL?
f
